Recorded below: MIC, system Escherichia coli UB1005.
Numbers only here, please. The scale is µM.

Take a look at these entries with their results.
- smiles entry: "CC[C@H](C)[C@H](NC(=O)[C@@H](NC(=O)[C@@H](NC(=O)[C@@H]1CCCN1C(=O)[C@H](CS)NC(=O)[C@H](CC(C)C)NC(=O)[C@H](CCCN=C(N)N)NC(=O)[C@H](CCCN=C(N)N)NC(=O)[C@@H](N)CCCN=C(N)N)[C@@H](C)CC)C(C)C)C(=O)N[C@@H](CCCN=C(N)N)C(=O)N[C@H](C(=O)N[C@@H](CS)C(=O)N[C@@H](CCCN=C(N)N)C(=O)N[C@@H](CCCN=C(N)N)C(=O)O)C(C)C"
  metric name: "MIC"
  experimental result: 2.23
- smiles entry: "CC[C@H](C)[C@H](N)C(=O)N[C@@H](CCCN=C(N)N)C(=O)N[C@@H](CCSC)C(=O)N[C@@H](CCCN=C(N)N)C(=O)N[C@H](C(=O)N[C@@H](CCCN=C(N)N)C(=O)N[C@H](C(=O)N[C@@H](CC(C)C)C(=O)N[C@@H](CC(C)C)C(=O)O)C(C)C)[C@@H](C)CC"
  metric name: "MIC"
  experimental result: 2

Form field - read-out: MIC; system: Escherichia coli UB1005; submitted item: CC(C)C[C@H](NC(=O)[C@H](CC(C)C)NC(=O)[C@H](Cc1c[nH]c2ccccc12)NC(=O)[C@H](Cc1c[nH]c2ccccc12)NC(=O)[C@H](Cc1c[nH]c2ccccc12)NC(=O)[C@@H](N)CCCN=C(N)N)C(N)=O
16

---

Recorded below: MIC, system Klebsiella pneumoniae ATCC 10031.
Numbers only here, please. The scale is µM.

- smiles entry: "CC(C)C[C@H](NC(=O)[C@H](Cc1c[nH]c2ccccc12)NC(=O)[C@H](CCCCN)NC(=O)[C@H](CC(C)C)NC(=O)[C@@H](N)Cc1ccccc1)C(=O)N[C@@H](Cc1ccccc1)C(=O)N[C@@H](CCCCN)C(=O)N[C@@H](Cc1c[nH]c2ccccc12)C(=O)N[C@@H](C)C(=O)N[C@@H](CCCCN)C(=O)N[C@@H](CCCCN)C(N)=O"
  target or system: "Klebsiella pneumoniae ATCC 10031"
  MIC (µM): 8.36

# next compound below
Form field - read-out: MIC; system: Klebsiella pneumoniae ATCC 10031; submitted item: CC(C)C[C@H](NC(=O)[C@H](CC(C)C)NC(=O)[C@H](CCCCN)NC(=O)[C@H](CCCCN)NC(=O)[C@H](CC(C)C)NC(=O)[C@H](Cc1c[nH]c2ccccc12)NC(=O)[C@H](CCCCN)NC(=O)[C@H](CC(C)C)NC(=O)[C@H](CC(C)C)NC(=O)[C@H](CCCCN)NC(=O)[C@@H](N)CCCCN)C(N)=O
4.47

---

System: Klebsiella pneumoniae
metric name: MIC (µM)
Numbers only here, please. The scale is µM.

Take a look at these entries with their results.
- compound: "CC[C@H](C)[C@H](N)C(=O)N[C@@H](CCCN=C(N)N)C(=O)N1CCC[C@H]1C(=O)N[C@H](C(=O)N[C@H](C(=O)N[C@@H](CCCN=C(N)N)C(=O)N1CCC[C@H]1C(=O)N[C@H](C(=O)N[C@H](C(=O)N[C@@H](CCCN=C(N)N)C(=O)N1CCC[C@H]1C(=O)N[C@H](C(=O)N[C@H](C(=O)N[C@@H](CCCN=C(N)N)C(=O)N1CCC[C@H]1C(=O)N[C@H](C(N)=O)[C@@H](C)CC)[C@@H](C)CC)[C@@H](C)CC)[C@@H](C)CC)[C@@H](C)CC)[C@@H](C)CC)[C@@H](C)CC [IRPIIRPIIRPIIRPI]"
  MIC [µM]: 32
- compound: "CC(C)C[C@H](NC(=O)[C@H](C)NC(=O)CNC(=O)[C@H](CC(C)C)NC(=O)[C@@H](N)Cc1ccccc1)C(=O)N[C@@H](Cc1ccccc1)C(=O)N[C@@H](CCCCN)C(=O)N[C@@H](CC(C)C)C(=O)N[C@@H](C)C(=O)N[C@@H](CO)C(=O)N[C@@H](CCCCN)C(=O)O [FLGALFKLASK]"
  MIC [µM]: 167

# next compound below
Sample CC(C)C[C@H](NC(=O)[C@H](Cc1ccccc1)NC(=O)CNC(=O)[C@H](CC(C)C)NC(=O)[C@@H](N)Cc1ccccc1)C(=O)N[C@@H](Cc1ccccc1)C(=O)N[C@@H](CCCCN)C(=O)N[C@H](C(=O)N[C@@H](C)C(=O)N[C@@H](CO)C(=O)N[C@@H](CCCCN)C(=O)O)C(C)C [FLGFLFKVASK] — what was its MIC?
79.6

---

Test system: Escherichia coli JM109
metric name: MIC (µM)
Numbers only here, please. The scale is µM.

Form field - read-out: MIC; system: Escherichia coli JM109; submitted item: CC[C@H](C)[C@H](N)C(=O)N[C@@H](CC(N)=O)C(=O)N[C@@H](Cc1c[nH]c2ccccc12)C(=O)N[C@@H](CCCCN)C(=O)N[C@@H](CCCCN)C(=O)N[C@H](C(=O)N[C@@H](C)C(=O)N[C@@H](CCC(=O)O)C(=O)N[C@H](C(=O)NCC(=O)N[C@@H](CCCCN)C(=O)N[C@@H](CCC(N)=O)C(=O)N[C@H](C(=O)N[C@@H](CC(C)C)C(=O)N[C@@H](CO)C(=O)N[C@@H](C)C(=O)N[C@@H](CC(C)C)C(N)=O)C(C)C)[C@@H](C)CC)[C@@H](C)CC
4.19

---

Recorded below: log10(MIC), system Escherichia coli UB1005.
Please interpret these as log10 of MIC where MIC is in µM.

Take a look at these entries with their results.
- smiles entry: "CC[C@H](C)[C@H](NC(=O)[C@H](CC(C)C)NC(=O)[C@@H](NC(=O)[C@@H](N)CC(=O)O)[C@@H](C)CC)C(=O)N[C@H](C(=O)N[C@H](C(=O)NCC(=O)NCC(=O)N[C@@H](CCCN=C(N)N)C(=O)N[C@@H](CCCN=C(N)N)C(=O)N[C@@H](CCCN=C(N)N)C(=O)N[C@@H](CCCN=C(N)N)C(=O)N[C@@H](CCCN=C(N)N)C(=O)N[C@@H](CCCN=C(N)N)C(=O)N[C@@H](CCCN=C(N)N)C(=O)N[C@@H](CCCN=C(N)N)C(N)=O)C(C)C)[C@@H](C)CC"
  log10(MIC): 0.90
- smiles entry: "CC(C)C[C@H](NC(=O)[C@H](CCCCN)NC(=O)[C@H](CCCCN)NC(=O)[C@H](C)NC(=O)[C@H](CC(C)C)NC(=O)[C@H](CCCCN)NC(=O)[C@H](CCCCN)NC(=O)[C@H](CC(C)C)NC(=O)[C@H](CCCCN)NC(=O)[C@H](CCCCN)NC(=O)[C@H](C)NC(=O)[C@H](CC(C)C)NC(=O)[C@H](CCCCN)NC(=O)[C@H](CCCCN)NC(=O)[C@H](C)NC(=O)[C@@H](N)Cc1ccccc1)C(=O)N[C@@H](C)C(=O)N[C@@H](CCCCN)C(=O)O"
  log10(MIC): -0.01
- smiles entry: "C[C@H](NC(=O)[C@H](C)NC(=O)[C@H](Cc1c[nH]c2ccccc12)NC(=O)[C@H](C)NC(=O)[C@H](C)NC(=O)[C@H](Cc1c[nH]c2ccccc12)NC(=O)[C@H](C)NC(=O)[C@H](C)NC(=O)[C@H](Cc1c[nH]c2ccccc12)NC(=O)[C@H](C)NC(=O)[C@H](C)NC(=O)[C@H](CCCCN)NC(=O)[C@H](CCCCN)NC(=O)[C@H](CCCCN)NC(=O)[C@H](CCCCN)NC(=O)[C@H](CCCCN)NC(=O)[C@@H](N)CCCCN)C(N)=O"
  log10(MIC): 0.00
- smiles entry: "CC[C@H](C)[C@H](NC(=O)[C@@H](NC(=O)[C@@H](NC(=O)[C@@H](NC(=O)[C@@H]1CCCN1C(=O)[C@H](CS)NC(=O)[C@H](CCCN=C(N)N)NC(=O)[C@H](CCCN=C(N)N)NC(=O)[C@@H](N)CCCN=C(N)N)[C@@H](C)CC)C(C)C)C(C)C)C(=O)N[C@@H](CCCN=C(N)N)C(=O)N[C@H](C(=O)N[C@@H](CS)C(=O)N[C@@H](CCCN=C(N)N)C(=O)N[C@@H](CCCN=C(N)N)C(=O)O)C(C)C"
  log10(MIC): 0.65
- smiles entry: "CC[C@H](C)[C@H](N)C(=O)N[C@@H](CCCN=C(N)N)C(=O)N1CCC[C@H]1C(=O)N[C@H](C(=O)N[C@H](C(=O)N[C@@H](CCCN=C(N)N)C(=O)N1CCC[C@H]1C(=O)N[C@H](C(=O)N[C@H](C(=O)N[C@@H](CCCN=C(N)N)C(=O)N1CCC[C@H]1C(=O)N[C@H](C(=O)N[C@H](C(=O)N[C@@H](CCCN=C(N)N)C(=O)N1CCC[C@H]1C(=O)N[C@H](C(N)=O)[C@@H](C)CC)[C@@H](C)CC)[C@@H](C)CC)[C@@H](C)CC)[C@@H](C)CC)[C@@H](C)CC)[C@@H](C)CC"
  log10(MIC): 1.20

Form field - read-out: log10(MIC); system: Escherichia coli UB1005; submitted item: NC(=O)CC[C@H](NC(=O)[C@H](Cc1c[nH]c2ccccc12)NC(=O)[C@H](Cc1c[nH]c2ccccc12)NC(=O)[C@H](Cc1c[nH]c2ccccc12)NC(=O)[C@H](CCC(N)=O)NC(=O)[C@H](Cc1c[nH]c2ccccc12)NC(=O)[C@H](CCCN=C(N)N)NC(=O)[C@@H](N)CCCN=C(N)N)C(=O)N[C@@H](Cc1c[nH]c2ccccc12)C(=O)N[C@@H](CCCN=C(N)N)C(=O)N[C@@H](CCCN=C(N)N)C(N)=O
0.60

Form field - read-out: log10(MIC); system: Escherichia coli UB1005; submitted item: CC(=O)[C@H](C)NC(=O)[C@H](C)NC(=O)[C@H](CC(N)=O)NC(=O)[C@H](CC(C)C)NC(=O)[C@H](Cc1ccc(O)cc1)NC(=O)CNC(=O)CNC(=O)CNC(=O)[C@H](Cc1cnc[nH]1)NC(=O)[C@H](Cc1cnc[nH]1)NC(=O)[C@@H](NC(=O)CNC(=O)[C@H](Cc1cnc[nH]1)NC(=O)[C@H](Cc1ccccc1)NC(=O)[C@H](CC(C)C)NC(=O)[C@H](CC(C)C)NC(=O)[C@H](CCCNC(=N)N)NC(=O)[C@H](Cc1ccccc1)NC(=O)[C@@H](N)Cc1ccccc1)C(C)C
1.48

Form field - read-out: log10(MIC); system: Escherichia coli UB1005; submitted item: CC[C@H](C)[C@H](NC(=O)[C@H](CC(C)C)NC(=O)[C@H](CCSC)NC(=O)[C@H](CCCN=C(N)N)NC(=O)[C@H](Cc1c[nH]c2ccccc12)NC(=O)[C@H](Cc1c[nH]c2ccccc12)NC(=O)[C@H](CCCCN)NC(=O)[C@H](Cc1ccccc1)NC(=O)[C@@H](N)CCCCN)C(=O)O
-0.22

Data provenance: DBAASP
